target: pre-pro-human insulin
assay metric: Selectivity (%)
Express it in %; write the number only.

Query: Dear colleague, please send me the reported Selectivity for trypsin variant SEQ ID NO: 126 (protein) IVGGYTCAANSIPYQVSLNSGSHECGGSLINSQWVVSAAHCYKSRIQVRLGEHNIDVLEGNEQFINAAKIITHPNFNGNTLDNDIMLIKLSSPATLNSRVATVSLPRSCAAAGTECLISGWGNTKSSGSSYPSLLQCLKAPVLSDSSCKSSYPGQITGNMICVGFLEGGKDACQGDSGGPVVCNGQLQGIVSSGYGCAQKNKPGVYTKVCNYVNWIQQTIAAN when you can.
Reply: 7.2

The measured values listed here are drawn from patent US20230303994.
